Origin of measurements: a melting point compilation (Tetko et al.)

experimentalReadout: melting point (°C)

response.value for Cc1ccccc1NC=C1C(=O)NN=C1c1c(O)c2ccccc2n(C)c1=O (field: melting point) = 288

response.value for CC(=O)SCC(C)C(=O)O (stereo unspecified) (field: melting point) = 5

[A] COc1ccc(SCC(=O)O)cc1OC
[B] O=C(c1ccc([N+](=O)[O-])cc1)c1noc(-c2ccc(Cl)cc2)c1S(=O)(=O)c1ccccc1
[C] CC#CC1(O)CCCCC1
List these items ordered by melting point, big to small. Quick reminder: the answer is the labels in the order asked.
B, A, C
(B: 210 °C, A: 102 °C, C: 48 °C)

###

experimentalReadout: melting point (°C)

# count of solved cases: 10
response.value for CCOC(=O)c1ncn2c1CN(C)C(=O)c1cc(F)ccc1-2 (field: melting point) = 202

response.value for O=c1oc2ccccc2c(O)c1C1CC(c2ccc(-c3ccc(Br)cc3)cc2)Cc2ccccc21 (stereo not drawn) (field: melting point) = 230

response.value for c1ccc(-c2ccncn2)cc1 (field: melting point) = 56

response.value for CCCCCCCCCCCCCCC(=O)OC (field: melting point) = 18.5

response.value for O=Cc1cc(F)ccc1Br (field: melting point) = 54

response.value for FC(F)(F)c1ccc(Cl)cc1Cl (field: melting point) = -26

response.value for Cc1ccc(C(c2ccc(C)o2)c2cc(Br)cc([N+](=O)[O-])c2O)o1 (field: melting point) = 100

response.value for COC(=O)CCCCCCC(=O)OC (field: melting point) = -3.1

response.value for Nc1c(F)c(F)nc(F)c1F (field: melting point) = 86

response.value for S=C(NCC(c1ccccc1)c1ccccc1)Nc1ccccc1 (field: melting point) = 171

[P] C=C1C(C)CCC2(C)C3=C(C(=O)C4(CC4C)C(O)C3=O)C(O)C(O)C12 (stereo not drawn)
[Q] CCCCOCCOCCOC(C)=O
[R] Nc1ccnc(N)c1
[S] Oc1ccnc(S)n1
[T] CC=C(C)C(=O)O
List these items ordered by melting point, big to small. Quick reminder: the answer is the labels in the order asked.
S, P, R, T, Q
(S: 300 °C, P: 194 °C, R: 107 °C, T: 64.5 °C, Q: -32 °C)

[1] O=c1[nH]oc2ccccc12
[2] Cn1c(/C(C#N)=C/c2cccc(O)c2)nc2ccccc21
Consider 1 and 2 . Which of these has its melting point at a higher number? Choose, then provide that item's label.
2
(2: 240 °C, 1: 139 °C)

[I] Clc1cc(-c2ccccn2)nc(-c2ccccn2)c1
[II] CC(=O)c1csc(-c2ccccc2)n1
Min melting point? I | II Choose, then provide that item's label.
II

[I] CC(=O)Nc1ccc(C#N)c(C)c1
[II] COC(=O)c1ccc(-c2ccccc2)nc1
Min melting point? I | II Choose, then provide that item's label.
II

###

experimentalReadout: melting point (°C)

# count of solved cases: 3
response.value for O=S(=O)(Cl)c1c(Cl)cccc1Cl (field: melting point) = 53

response.value for Oc1cc(Cl)cc(Cl)c1Cl (field: melting point) = 62

response.value for COc1cc2c(c3oc(=O)c4c(c13)CCC4=O)C1CCOC1O2 (stereo unspecified) (field: melting point) = 288

[1] COC(=O)CCc1cc2c(cc1NC(C)=O)NC(=O)CC2
[2] CCCCCCCCCCCCCC(=O)OC(=O)CCCCCCCCCCCCC
Min melting point? 1 | 2 Choose, then provide that item's label.
2
(2: 53.4 °C, 1: 245 °C)
